Measured viability, T/C accompanies every entry in the list below.
System: 171881-019-R-J1-PDC complex spheroid viability;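 further: spheroids exposed to agents for 7 days after 3 days growth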
experimentalProtocol: Anticancer human tumor 171881-019-R-J1-PDC patient-derived invasive breast carcinoma cell line growth inhibition
details: second compound 0.1 µM; first compound 0.000949 µM; active compounds read low
Give the value in % but do not write % after it.

Illustrative cases are given below, each with its answer.
{"columns": ["compound", "studySystem", "viability, T/C (%)"],
 "data": [
  ["Nc1ncn(C2CC(O)C(CO)S2)c(=O)n1 (stereo unspecified) + NC1CC1c1ccc(-c2cccc(O)c2)cc1", "171881-019-R-J1-PDC complex spheroid viability", 101],
  ["CCc1c2c(nc3ccc(O)cc13)-c1cc3c(c(=O)n1C2)COC(=O)[C@]3(O)CC + NC1CC1c1ccc(-c2cccc(O)c2)cc1", "171881-019-R-J1-PDC complex spheroid viability", 44.7],
  ["Nc1ccn(C2OC(CO)C(O)C2(F)F)c(=O)n1 (stereo unspecified) + NC1CC1c1ccc(-c2cccc(O)c2)cc1", "171881-019-R-J1-PDC complex spheroid viability", 65.1],
  ["Nc1ncn(C2CC(O)C(CO)S2)c(=O)n1 (stereo unspecified) + NC1CCC(NC2CC2c2ccccc2)CC1", "171881-019-R-J1-PDC complex spheroid viability", 85.7],
  ["CCc1c2c(nc3ccc(O)cc13)-c1cc3c(c(=O)n1C2)COC(=O)[C@]3(O)CC + NC1CCC(NC2CC2c2ccccc2)CC1", "171881-019-R-J1-PDC complex spheroid viability", 64.2]
]}

Ask | Look up viability, T/C: Nc1ccn(C2OC(CO)C(O)C2(F)F)c(=O)n1 (stereo unspecified) + NC1CCC(NC2CC2c2ccccc2)CC1
Reply | 77.4
